Target: TEC (Homo sapiens (Human), UniProt P42680)
Sequence (P42680 whole entry): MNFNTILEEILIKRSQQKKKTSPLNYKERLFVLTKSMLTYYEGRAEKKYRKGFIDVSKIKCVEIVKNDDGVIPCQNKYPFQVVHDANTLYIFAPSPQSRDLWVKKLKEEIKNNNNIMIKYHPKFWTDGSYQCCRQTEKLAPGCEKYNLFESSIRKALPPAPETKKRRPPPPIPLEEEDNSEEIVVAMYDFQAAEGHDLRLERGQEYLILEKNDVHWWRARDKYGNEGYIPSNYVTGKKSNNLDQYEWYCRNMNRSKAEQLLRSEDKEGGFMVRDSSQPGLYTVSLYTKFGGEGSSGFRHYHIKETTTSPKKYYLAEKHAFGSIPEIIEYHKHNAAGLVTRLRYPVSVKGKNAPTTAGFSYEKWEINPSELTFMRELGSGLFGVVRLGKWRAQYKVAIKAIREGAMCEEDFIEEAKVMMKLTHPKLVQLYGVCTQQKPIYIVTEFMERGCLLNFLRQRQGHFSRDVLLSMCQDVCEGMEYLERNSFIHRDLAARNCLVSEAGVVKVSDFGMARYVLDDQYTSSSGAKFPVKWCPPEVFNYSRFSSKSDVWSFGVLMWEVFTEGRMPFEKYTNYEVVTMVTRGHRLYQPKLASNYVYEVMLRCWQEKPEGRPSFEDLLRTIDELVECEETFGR
measurement_name: IC50 (nM)

C=CC(=O)Nc1cc(-n2c(=O)ccc3cnc4ccc(-c5ccc(NS(C)(=O)=O)cc5)cc4c32)ccc1C    653

###

System: Ramos cells
Test: Cell proliferation analysis for WM and lymphoma cell lines (CellTiter-Glo)
Type: cell-based
Conditions: Homo sapiens, 72 hours
measurement_name: EC50 (nM)

C=CC(=O)Nc1cc(-n2c(=O)ccc3cnc4ccc(-c5ccc(N)nc5)cc4c32)ccc1C    872
C=CC(=O)Nc1cc(-n2c(=O)ccc3cnc4ccc(-c5ccc6occc6c5)cc4c32)ccc1C    602
C=CC(=O)N1CCc2ccc(-n3c(=O)ccc4cnc5ccc(-c6ccc(N7CCN(C)CC7)cc6)cc5c43)cc21    420
C=CC(=O)Nc1cc(-n2c(=O)ccc3cnc4ccc(-c5ccc6[nH]ncc6c5)cc4c32)ccc1C    91
C=CC(=O)Nc1cc(-n2c(=O)ccc3cnc4ccc(Nc5ccc6cnccc6c5)cc4c32)ccc1C    6280
C=CC(=O)Nc1cc(-n2c(=O)ccc3cnc4ccc(-c5cnn(S(=O)(=O)c6ccccc6)c5)cc4c32)ccc1C    872
C=CC(=O)N1CCc2ccc(-n3c(=O)ccc4cnc5ccc(-c6ccc(COc7cccc(C(F)(F)F)c7)cc6)cc5c43)cc21    3770
C=CC(=O)Nc1cc(-n2c(=O)ccc3cnc4ccc(Nc5ccc6cccnc6c5)cc4c32)ccc1C    3430
C=CC(=O)Nc1cc(-n2c(=O)ccc3cnc4ccc(-c5ccc6c(c5)OCO6)cc4c32)ccc1C    653

###

// reported log10 EC50 for each item listed
Tested on: MWCL-1 cells
Test: Cell proliferation analysis for WM and lymphoma cell lines (CellTiter-Glo)
Format: cell-based
Settings: 72 hours
measurement_name: log10 EC50 (log10 of the value in µM)

C=CC(=O)Nc1cc(-n2c(=O)ccc3cnc4ccc(Nc5ccc6cnccc6c5)cc4c32)ccc1C [I-27]    0.96
C=CC(=O)Nc1cc(-n2c(=O)ccc3cnc4ccc(-c5ccc6[nH]ncc6c5)cc4c32)ccc1C [I-22]    -0.93
C=CC(=O)N1CCc2ccc(-n3c(=O)ccc4cnc5ccc(-c6ccc(COc7cccc(C(F)(F)F)c7)cc6)cc5c43)cc21 [I-10]    0.76
C=CC(=O)Nc1cc(-n2c(=O)ccc3cnc4ccc(Nc5ccc6cccnc6c5)cc4c32)ccc1C [I-28]    0.87
C=CC(=O)Nc1cc(-n2c(=O)ccc3cnc4ccc(Nc5ccc6ncccc6c5)cc4c32)ccc1C [I-29]    0.86
C=CC(=O)N1CCc2ccc(-n3c(=O)ccc4cnc5ccc(-c6ccc(N7CCN(C)CC7)cc6)cc5c43)cc21 [I-17]    0.25
C=CC(=O)Nc1cc(-n2c(=O)ccc3cnc4ccc(/C=C/c5ccccc5)cc4c32)ccc1C [I-16]    0.25
C=CC(=O)Nc1cc(-n2c(=O)ccc3cnc4ccc(-c5ccc6occc6c5)cc4c32)ccc1C [I-20]    -0.10

###

Record type: IC50 measurement. Applies to: JAK3 (Homo sapiens (Human))
measurement_name: IC50 (µM)

C=CC(=O)Nc1cc(-n2c(=O)ccc3cnc4ccc(-c5ccc(NC(=O)NC)cc5)cc4c32)ccc1C    4.17
C=CC(=O)Nc1cc(-n2c(=O)ccc3cnc4ccc(-c5cccnc5)cc4c32)ccc1C    1.52

###

Test system: Ramos cells
Assay: Cell proliferation analysis for WM and lymphoma cell lines (CellTiter-Glo)
Type: cell-based
Details: Homo sapiens, 72 hours
pEC50: −log10 of the molar value.
Decision: pEC50 compared against 6; not below it gives 1, below it gives 0.

C=CC(=O)Nc1cc(-n2c(=O)ccc3cnc4ccc(-c5ccc6ocnc6c5)cc4c32)ccc1C [I-24]    1
C=CC(=O)Nc1cc(-n2c(=O)ccc3cnc4ccc(-c5ccc6ccncc6c5)cc4c32)ccc1C [I-21]    1
C=CC(=O)N1CCc2ccc(-n3c(=O)ccc4cnc5ccc(-c6cn[nH]c6)cc5c43)cc21 [II-14]    1
C=CC(=O)Nc1cc(-n2c(=O)ccc3cnc4ccc(-c5ccc(NS(C)(=O)=O)cc5)cc4c32)ccc1C [I-14]    0
C=CC(=O)Nc1cc(-n2c(=O)ccc3cnc4ccc(Nc5ccc6ccncc6c5)cc4c32)ccc1C [I-26]    0
C=CC(=O)Nc1cc(-n2c(=O)ccc3cnc4ccc(-c5ccccc5)cc4c32)ccc1C [I-7]    1
C=CC(=O)Nc1cc(-n2c(=O)ccc3cnc4ccc(/C=C/c5ccccc5)cc4c32)ccc1C [I-16]    1

###

Target: UniProt:Q08881
Sequence (Q08881 whole entry): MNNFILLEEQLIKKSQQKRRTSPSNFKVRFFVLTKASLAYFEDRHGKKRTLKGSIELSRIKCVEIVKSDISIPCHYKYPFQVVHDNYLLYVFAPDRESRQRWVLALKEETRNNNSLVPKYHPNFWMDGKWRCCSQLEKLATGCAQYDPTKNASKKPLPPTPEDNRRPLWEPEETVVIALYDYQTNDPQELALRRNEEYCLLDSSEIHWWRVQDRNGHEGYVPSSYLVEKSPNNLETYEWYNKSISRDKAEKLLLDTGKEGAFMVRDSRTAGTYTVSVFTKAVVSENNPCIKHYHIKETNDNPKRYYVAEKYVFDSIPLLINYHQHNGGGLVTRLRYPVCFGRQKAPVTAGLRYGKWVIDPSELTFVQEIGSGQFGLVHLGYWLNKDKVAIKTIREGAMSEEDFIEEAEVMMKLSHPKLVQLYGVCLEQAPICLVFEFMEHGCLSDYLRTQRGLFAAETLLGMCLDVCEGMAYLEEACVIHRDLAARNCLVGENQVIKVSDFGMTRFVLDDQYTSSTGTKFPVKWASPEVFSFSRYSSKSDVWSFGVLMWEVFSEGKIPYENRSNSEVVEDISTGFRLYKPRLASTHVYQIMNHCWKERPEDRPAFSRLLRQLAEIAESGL
measurement_name: IC50 (µM)

C=CC(=O)Nc1cc(-n2c(=O)ccc3cnc4ccc(-c5ccc(NS(C)(=O)=O)cc5)cc4c32)ccc1C    5.25

###

// reported pIC50 for each item listed
Biological target: UniProt:P42345
pIC50: −log10 of the molar value.
measurement_name: pIC50

C=CC(=O)N1CCc2ccc(-n3c(=O)ccc4cnc5ccc(-c6cn[nH]c6)cc5c43)cc21    6.68
C=CC(=O)Nc1cc(-n2c(=O)ccc3cnc4ccc(-c5ccoc5)cc4c32)ccc1C    5.32
C=CC(=O)Nc1cc(-n2c(=O)ccc3cnc4ccc(-c5ccc(NS(C)(=O)=O)cc5)cc4c32)ccc1C    6.49
C=CC(=O)Nc1cccc(-n2c(=O)ccc3cnc4ccc(-c5ccc(N)nc5)cc4c32)c1    7.72
C=CC(=O)Nc1cc(-n2c(=O)ccc3cnc4ccc(-c5cnc6ccccc6c5)cc4c32)ccc1C    7.49
C=CC(=O)Nc1cc(-n2c(=O)ccc3cnc4ccc(-c5ccsc5)cc4c32)ccc1C    6.43
C=CC(=O)N1CCc2ccc(-n3c(=O)ccc4cnc5ccc(-c6ccc(N)nc6)cc5c43)cc21    7.01
C=CC(=O)Nc1cc(-n2c(=O)ccc3cnc4ccc(-c5ccc(N)nc5)cc4c32)ccc1C    7.77

###

// reported pEC50 for each item listed
Tested on: MWCL-1 cells
Test: Cell proliferation analysis for WM and lymphoma cell lines (CellTiter-Glo)
Assay type: cell-based
Details: 72 hours
pEC50: −log10 of the molar value.
measurement_name: pEC50

C=CC(=O)Nc1cc(-n2c(=O)ccc3cnc4ccc(-c5ccc(N)nc5)cc4c32)ccc1C [II-5]    5.81
C=CC(=O)Nc1cc(-n2c(=O)ccc3cnc4ccc(-c5ccc6ccncc6c5)cc4c32)ccc1C [I-21]    7.25
C=CC(=O)N1CCc2ccc(-n3c(=O)ccc4cnc5ccc(-c6cnn(C)c6)cc5c43)cc21 [II-4]    6.72
C=CC(=O)Nc1cc(-n2c(=O)ccc3cnc4ccc(-c5ccc6c(c5)OCO6)cc4c32)ccc1C [I-23]    6.21
C=CC(=O)Nc1cc(-n2c(=O)ccc3cnc4ccc(-c5cn[nH]c5)cc4c32)ccc1C [II-6]    6.74
C=CC(=O)Nc1cc(-n2c(=O)ccc3cnc4ccc(-c5ccccc5)cc4c32)ccc1C [I-7]    6.02
C=CC(=O)Nc1cc(-n2c(=O)ccc3cnc4ccc(-c5cccnc5)cc4c32)ccc1C [II-11]    6.17
C=CC(=O)Nc1cc(-n2c(=O)ccc3cnc4ccc(Nc5ccc6ccncc6c5)cc4c32)ccc1C [I-26]    5.17
C=CC(=O)N1CCc2ccc(-n3c(=O)ccc4cnc5ccc(-c6ccc(N)nc6)cc5c43)cc21 [II-13]    5.61
C=CC(=O)N1CCc2ccc(-n3c(=O)ccc4cnc5ccc(-c6cn[nH]c6)cc5c43)cc21 [II-14]    6.19
C=CC(=O)Nc1cc(-n2c(=O)ccc3cnc4ccc(-c5ccc(NS(C)(=O)=O)cc5)cc4c32)ccc1C [I-14]    5.86
C=CC(=O)Nc1cc(-n2c(=O)ccc3cnc4ccc(-c5ccc6ocnc6c5)cc4c32)ccc1C [I-24]    6.55
C=CC(=O)Nc1cc(-n2c(=O)ccc3cnc4ccc(-c5cnn(S(=O)(=O)c6ccccc6)c5)cc4c32)ccc1C [II-23]    5.81
C=CC(=O)Nc1cc(-n2c(=O)ccc3cnc4ccc(-c5ccoc5)cc4c32)ccc1C [II-10]    5.67

###

System: RV-1 cells
Assay: Anti-proliferation assay for prostate cancer cells (CellTiter-Glo)
Assay type: cell-based
Conditions: RV-1, 120 h; 5 day incubation
measurement_name: IC50

C=CC(=O)Nc1cc(-n2c(=O)ccc3cnc4ccc(-c5ccc(NS(C)(=O)=O)cc5)cc4c32)ccc1C    2530 nM

###

System: Ramos cells
Assay: Cell proliferation analysis for WM and lymphoma cell lines (CellTiter-Glo)
Assay type: cell-based
Conditions: Homo sapiens, 72 hours
// reported EC50 for each item listed
measurement_name: EC50 (nM)

C=CC(=O)Nc1cc(-n2c(=O)ccc3cnc4ccc(Nc5ccc6ncccc6c5)cc4c32)ccc1C    2570
C=CC(=O)Nc1cc(-n2c(=O)ccc3cnc4ccc(-c5cn[nH]c5)cc4c32)ccc1C    40
C=CC(=O)Nc1cc(-n2c(=O)ccc3cnc4ccc(-c5cccnc5)cc4c32)ccc1C    200
C=CC(=O)Nc1cc(-n2c(=O)ccc3cnc4ccc(-c5ccoc5)cc4c32)ccc1C    280

###

Record type: pIC50 measurement. Applies to: BTK (Homo sapiens (Human), UniProt Q06187)
pIC50: −log10 of the molar value.
measurement_name: pIC50

C=CC(=O)Nc1cc(-n2c(=O)ccc3cnc4ccc(-c5ccccc5)cc4c32)ccc1C    7.60
C=CC(=O)Nc1cc(-n2c(=O)ccc3cnc4ccc(-c5cnn(C)c5)cc4c32)ccc1C    7.85
C=CC(=O)N1CCc2ccc(-n3c(=O)ccc4cnc5ccc(-c6ccc(COc7cccc(C(F)(F)F)c7)cc6)cc5c43)cc21    5.97
C=CC(=O)Nc1cc(-n2c(=O)ccc3cnc4ccc(-c5cnc6ccccc6c5)cc4c32)ccc1C    7.60
C=CC(=O)N1CCc2ccc(-n3c(=O)ccc4cnc5ccc(-c6ccc(N7CCN(C)CC7)cc6)cc5c43)cc21    6.81
C=CC(=O)Nc1cc(-n2c(=O)ccc3cnc4ccc(/C=C/c5ccccc5)cc4c32)ccc1C    6.98
C=CC(=O)N1CCc2ccc(-n3c(=O)ccc4cnc5ccc(-c6cnc7ccccc7c6)cc5c43)cc21    8.15
C=CC(=O)N1CCc2ccc(-n3c(=O)ccc4cnc5ccc(-c6ccc(S(=O)(=O)NC(C)(C)C)cc6)cc5c43)cc21    7.96
C=CC(=O)Nc1cc(-n2c(=O)ccc3cnc4ccc(-c5ccc(COc6cccc(C(F)(F)F)c6)cc5)cc4c32)ccc1C    7.43
C=CC(=O)Nc1cc(-n2c(=O)ccc3cnc4ccc(-c5ccc(NC(=O)NC)cc5)cc4c32)ccc1C    7.18
C=CC(=O)N1CCc2ccc(-n3c(=O)ccc4cnc5ccc(-c6ccc(C(=O)NC)cc6F)cc5c43)cc21    7.27
C=CC(=O)N1CCc2ccc(-n3c(=O)ccc4cnc5ccc(-c6cnc(N)cc6C(F)(F)F)cc5c43)cc21    6.47
